Assay: Solubility in simulated intestinal fluids (FaSSIF / FeSSIF)
Details: 25 °C, fassif, thermodynamic from solid
parameter measured: solubility (µg/mL)
Please reply with the bare figure in µg/mL and do not write the unit itself.

May I ask what solubility has been recorded for CC(C)(C#Cc1ccc(-c2ccc(Cl)c3c(N(C(=O)N4CCC[C@H]4CN(CC(=O)O)C(=O)OCOP(=O)(O)O)S(C)(=O)=O)nn(CC(F)(F)F)c23)c([C@H](Cc2cc(F)cc(F)c2)NC(=O)Cn2nc(C(F)(F)F)c3c2C(F)(F)[C@@H]2C[C@H]32)n1)S(C)(=O)=O [Compound 33] ?
5020

====

Assay: Kinetic solubility analysis (CLND: total chemiluminescent nitrogen determination)
Conditions: 1×PBS buffer (pH 7.4), 1.0% DMSO, 24-hour incubation at ambient temperature, maximum theoretical concentration 100 μM
The threshold is inclusive: pH 7 solubility of exactly 8 μM counts as satisfied; values below receive not satisfied.

Please review the entries below; each comes with its answer.
compound	group
CC(C)(C#Cc1ccc(-c2ccc(Cl)c3c(N(C(=O)N4CCC(C(=O)O)CC4)S(C)(=O)=O)nn(CC(F)(F)F)c23)c([C@H](Cc2cc(F)cc(F)c2)NC(=O)Cn2nc(C(F)(F)F)c3c2C(F)(F)[C@@H]2C[C@H]32)n1)S(C)(=O)=O [Compound 25]	satisfied
CC(C)(C#Cc1ccc(-c2ccc(Cl)c3c(N(C(=O)c4ccccc4C(=O)OCOP(=O)(O)O)S(C)(=O)=O)nn(CC(F)(F)F)c23)c([C@H](Cc2cc(F)cc(F)c2)NC(=O)Cn2nc(C(F)(F)F)c3c2C(F)(F)[C@@H]2C[C@H]32)n1)S(C)(=O)=O [Compound 19]	satisfied
CC(C)(C#Cc1ccc(-c2ccc(Cl)c3c(N(C(=O)C4CN(C(=N)N)C4)S(C)(=O)=O)nn(CC(F)(F)F)c23)c([C@H](Cc2cc(F)cc(F)c2)NC(=O)Cn2nc(C(F)(F)F)c3c2C(F)(F)[C@@H]2C[C@H]32)n1)S(C)(=O)=O [Compound 6]	satisfied
CC(C)(C#Cc1ccc(-c2ccc(Cl)c3c(N(C(=O)N4CCC(N5CCCCC5)CC4)S(C)(=O)=O)nn(CC(F)(F)F)c23)c([C@H](Cc2cc(F)cc(F)c2)NC(=O)Cn2nc(C(F)(F)F)c3c2C(F)(F)[C@@H]2C[C@H]32)n1)S(C)(=O)=O [Compound 2]	not satisfied

We next turn to a different compound, shown below.
// inclusive: pH 7 solubility at least 8 μM? input: CC(C)(C#Cc1ccc(-c2ccc(Cl)c3c(N(C(=O)N4CCC[C@H]4CN(CC(=O)O)C(=O)OCOP(=O)(O)O)S(C)(=O)=O)nn(CC(F)(F)F)c23)c([C@H](Cc2cc(F)cc(F)c2)NC(=O)Cn2nc(C(F)(F)F)c3c2C(F)(F)[C@@H]2C[C@H]32)n1)S(C)(=O)=O [Compound 33]
satisfied

Origin of values: patent US12084467B2
